# MEASUREMENT_PROTOCOL: chemical genetic growth profiling, strain panel (AID 1159580);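 note: tested at 20 µM; growth read once vehicle control cultures reached saturation at 30 °C; 1 = growth at the plate median or of vehicle wells; lower values mean less growth of the strain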
# EXPERIMENTAL_CONDITIONS: S. cerevisiae strains, growth OD, strain wild type, stronger effect = lower value
The whole screen tested about 5,500 compounds, of which about 2,000 (36%) were called active. About 18% were inconclusive and are not listed. Some of the results follow.
MEASUREMENT_NAME: normalized growth
Reply: number alone, nothing else.

COMPOUND	normalized growth
COc1ccc2c(c1)OCC(Cc1ccc(OC)c(O)c1)C2=O (centres undefined)	0.973
C1N2CN3CN1CN(C2)C3	0.989
Fc1ccc([C@@H]2CCNC[C@H]2COc2ccc3c(c2)OCO3)cc1	1.02
CCOC(=O)c1ccc(Oc2sccc2[N+](=O)[O-])cc1	0.0898

# normalized growth of NNC(=O)c1cnn(-c2ccc(Cl)cc2)c1C(F)(F)F = 1.01

compound CN1CCC[C@@H]1CCO[C@](C)(c1ccccc1)c1ccc(Cl)cc1 , normalized growth observed: 0.99

====

# MEASUREMENT_PROTOCOL: chemical genetic growth profiling, strain panel (AID 1159580);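 note: tested at 20 µM; growth read once vehicle control cultures reached saturation at 30 °C; 1 = growth at the plate median or of vehicle wells; lower values mean less growth of the strain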
# EXPERIMENTAL_CONDITIONS: S. cerevisiae deletion strains, growth OD, locus YLR342W, strain FKS1, stronger effect = lower value
The whole screen tested about 5,500 compounds, of which about 2,000 (36%) were called active. Roughly 18% stayed inconclusive and do not appear here. The list shows a part of the results.
MEASUREMENT_NAME: normalized growth
The answer should be a number; do not append a unit.

MOLECULE	MEASUREMENT_NAME	RECORDED_NUMBER
CN[C@@H]1C(OC2[C@H](O[C@H]3[C@H](O)[C@@H](O)[C@H](N=C(N)N)[C@@H](O)[C@@H]3N=C(N)N)OC(C)[C@]2(O)CO)OC(CO)C(O)C1O (stereo partly drawn)	normalized growth	1
CC1[C@H](C)OC(=O)CC(O)CC(O)CC(O)CCC(O)C(O)C[C@]2(O)CC(O)C(C(=O)O)C(CC(OC3O[C@H](C)[C@@H](O)[C@H](N)[C@@H]3O)/C=C/C=C/C=C/C=C/CC/C=C/C=C/[C@H](C)[C@H]1O)O2 (stereo partly drawn)	normalized growth	0.376

Okay, next one:
In plain terms, Cc1nnc(NS(=O)(=O)c2ccc(N)cc2)s1 has a documented normalized growth of 0.996

====

# MEASUREMENT_PROTOCOL: chemical genetic growth profiling, strain panel (AID 1159580);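 note: tested at 20 µM; growth read once vehicle control cultures reached saturation at 30 °C; 1 = growth at the plate median or of vehicle wells; lower values mean less growth of the strain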
# EXPERIMENTAL_CONDITIONS: S. cerevisiae deletion strains, growth OD, locus YOR329C, strain SCD5, stronger effect = lower value
Among all 5,500 compounds or so, about 2,000 (36%) were called active. Roughly 18% stayed inconclusive and do not appear here. This is one part of the list.
normalized growth reference
// keep it numeric: no unit symbol after the value

> print(dat)
                        molecule  recorded.number
1   Clc1cc(Cl)cc(C=NCc2ccccc2)c1            0.946
2  Clc1ccccc1-c1csc(-c2cccnc2)n1            0.902

# molecule COc1ccc(-c2cn3cc(C)ccc3n2)cc1 ; its normalized growth = 0.982

Documented normalized growth of Cc1ccccc1/C=C/c1c[nH]c2ccccc12 : 0.961

In plain terms, Brc1ccc(-c2csc(-c3cccnc3)n2)cc1 has a documented normalized growth of 0.883

Value of measured normalized growth for the entry O=C(NNc1ccccc1)c1cc(-c2ccc(Cl)cc2)oc1C(F)(F)F : 0.957

The molecule listed as COc1ccc2c(c1)CCc1sc(NC(=O)c3ccco3)nc1-2 has a reported normalized growth of 0.969

response.value for CC(C)(C)C1=C(C#N)C(c2c(Cl)cccc2Cl)C(C#N)=C(N)O1 (configuration not stated) (field: normalized growth) = 0.993

Lookup result for O=C(Nc1ccncc1)c1cc(-c2ccccc2)oc1C(F)(F)F ; measured normalized growth: 0.998

// field: normalized growth; key: COc1ccc(-c2csc(-c3cccnc3)n2)cc1 ; value = 0.957

The molecule O=C(Nc1cc(C(F)(F)F)cc(C(F)(F)F)c1)C(Cl)(Cl)Cl showed normalized growth equal to 0.959

Noted for CNC(=O)Sc1c(-c2ccc(Cl)cc2)nn(C(=O)NC)c1SC : its normalized growth reads 0.977

Reference for the values: PubChem BioAssay AID1159580
